Biological target: recombinant guanylate cyclase reporter cell line (Rattus norvegicus, UniProt P19686+P20595)
Construct: expressed in transfected cells; host or cells: recombinant reporter cell line
Sequence (P19686 whole entry): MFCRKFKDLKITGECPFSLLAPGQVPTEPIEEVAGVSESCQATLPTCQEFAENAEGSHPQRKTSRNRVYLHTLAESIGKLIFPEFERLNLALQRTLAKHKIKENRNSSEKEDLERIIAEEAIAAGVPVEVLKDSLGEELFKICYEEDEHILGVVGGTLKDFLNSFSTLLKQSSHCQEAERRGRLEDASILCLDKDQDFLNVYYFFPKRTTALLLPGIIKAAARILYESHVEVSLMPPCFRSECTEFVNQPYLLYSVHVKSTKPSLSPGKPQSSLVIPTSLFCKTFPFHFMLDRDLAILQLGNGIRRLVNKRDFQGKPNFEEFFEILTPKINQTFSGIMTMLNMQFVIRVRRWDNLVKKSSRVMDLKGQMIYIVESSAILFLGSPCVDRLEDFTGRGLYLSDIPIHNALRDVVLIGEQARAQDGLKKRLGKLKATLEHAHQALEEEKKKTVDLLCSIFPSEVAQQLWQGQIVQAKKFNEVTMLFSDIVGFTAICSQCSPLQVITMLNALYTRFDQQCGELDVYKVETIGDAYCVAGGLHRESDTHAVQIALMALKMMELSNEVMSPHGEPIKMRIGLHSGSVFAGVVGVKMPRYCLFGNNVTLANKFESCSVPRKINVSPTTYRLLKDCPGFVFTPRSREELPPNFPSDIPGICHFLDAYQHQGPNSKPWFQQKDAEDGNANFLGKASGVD
Sequence (P20595 whole entry): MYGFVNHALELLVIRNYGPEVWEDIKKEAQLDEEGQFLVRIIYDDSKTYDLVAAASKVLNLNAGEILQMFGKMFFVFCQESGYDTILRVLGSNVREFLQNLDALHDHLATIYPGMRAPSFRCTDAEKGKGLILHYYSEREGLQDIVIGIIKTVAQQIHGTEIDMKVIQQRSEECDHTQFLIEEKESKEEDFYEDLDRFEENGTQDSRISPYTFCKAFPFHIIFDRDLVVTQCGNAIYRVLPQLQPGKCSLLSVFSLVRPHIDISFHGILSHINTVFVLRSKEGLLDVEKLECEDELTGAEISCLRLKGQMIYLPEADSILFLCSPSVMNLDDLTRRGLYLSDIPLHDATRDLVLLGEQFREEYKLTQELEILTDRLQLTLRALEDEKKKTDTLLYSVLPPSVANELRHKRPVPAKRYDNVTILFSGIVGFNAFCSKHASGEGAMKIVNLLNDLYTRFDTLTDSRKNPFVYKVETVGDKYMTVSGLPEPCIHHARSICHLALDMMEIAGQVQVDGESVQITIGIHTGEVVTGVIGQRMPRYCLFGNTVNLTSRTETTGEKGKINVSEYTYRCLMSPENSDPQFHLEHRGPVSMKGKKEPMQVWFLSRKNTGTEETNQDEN
Experiment: Effect on a recombinant guanylate cyclase reporter cell line
Assay type: cell-based
Details: MEC = minimum effective concentration; in some cases mean values for individual determinations
Method: B-2. Effect on a Recombinant Guanylate Cyclase Reporter Cell Line The cellular effect of the inventive compounds is determined using a recombinant guanylate cyclase reporter cell line, as described in F. Wunder et al., Anal. Biochem. 339, 104-112 (2005). Representative MEC values (MEC=minimum effective concentration) for the inventive compounds are shown in the table below (in some cases as mean values for individual determinations): […]
For each record, write down the corresponding MEC.
# number only, unit µM dropped from output

Exam item: Suppose we examine the molecule CCOCc1nnc(-c2c(C)nc3c(OCC4CCCCC4)cccn23)o1 ; what MEC value has been reported?
Marked response: 3.0

Exam item: Suppose we examine the molecule Cc1cc(OCc2c(F)cccc2F)c2nc(C)c(-c3cnn(CCN4CCN(C)CC4)c3)n2c1 ; what MEC value has been reported?
Marked response: 0.3

Exam item: Suppose we examine the molecule Cc1nc2c(OCc3c(F)cccc3F)cccn2c1-c1ccc2[nH]ncc2c1 ; what MEC value has been reported?
Marked response: 1.0

Exam item: Suppose we examine the molecule CCCOc1ccc(-c2c(C)nc3c(OCc4c(F)cccc4F)cccn23)cn1 ; what MEC value has been reported?
Marked response: 1.0

Exam item: Suppose we examine the molecule Cc1nc2c(OCc3c(F)cccc3F)cccn2c1-c1ccc2cn[nH]c2c1 ; what MEC value has been reported?
Marked response: 0.3
